# assay-target: human SCD5 (Homo sapiens (Human), UniProt Q86SK9)
# Sequence (Q86SK9 whole entry): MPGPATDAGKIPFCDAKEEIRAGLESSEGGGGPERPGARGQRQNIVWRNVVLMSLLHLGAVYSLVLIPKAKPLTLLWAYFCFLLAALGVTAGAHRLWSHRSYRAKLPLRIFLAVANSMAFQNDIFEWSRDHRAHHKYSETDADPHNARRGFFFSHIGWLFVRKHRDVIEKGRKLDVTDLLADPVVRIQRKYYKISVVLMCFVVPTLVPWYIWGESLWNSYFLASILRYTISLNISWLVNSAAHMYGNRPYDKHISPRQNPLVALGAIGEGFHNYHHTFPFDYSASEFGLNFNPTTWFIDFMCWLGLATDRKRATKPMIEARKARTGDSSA
# assay-remarks: Yeast growth assay, strain expressing human SCD5 as the sole desaturase (reduced growth as surrogate for SCD inhibition)
# details: yeast with OLE1 deleted expressing human SCD5 from a plasmid; growth read as OD600 after 40 h at 30° C.; top drug concentration 33.3 μM
Structures can show the parent of a compound that is named as a salt.
property-measured: IC50

Ask | Request the reported IC50 associated with N#Cc1cccc(-c2cc(C(=O)N3CCC(c4ccccc4)CC3)no2)c1
Reply | > 45 µM

Ask | Request the reported IC50 associated with Cc1csc(-c2cc(C(=O)Nc3cnn(Cc4ccccc4)c3)no2)n1
Reply | > 45 µM

Ask | Request the reported IC50 associated with Cc1nn(Cc2ccccc2)cc1NC(=O)c1cc(-c2ccccc2)on1
Reply | > 45 µM

Ask | Request the reported IC50 associated with Cc1nn(C)c2cc(-c3cc(C(=O)N4CCCC4c4ccnnc4)no3)ccc12 (centres unmarked)
Reply | > 45 µM

Ask | Request the reported IC50 associated with Cc1nn(C)c2cc(-c3cc(C(=O)N4CCN(c5ccccc5)CC4)no3)ccc12
Reply | > 45 µM

Ask | Request the reported IC50 associated with O=C(c1cc(-c2cccnc2)on1)N1CCC(c2ccccc2)CC1 [Compound 315, trifluoroacetic acid salt]
Reply | 1.06 µM

Ask | Request the reported IC50 associated with O=C(c1cc(-c2ccc3c(c2)OCO3)on1)N1CCC(c2ccccc2)CC1
Reply | 1.13 µM

Attention now shifts to the item below.
Ask | Request the reported IC50 associated with O=C(c1cc(-c2ccc3c(c2)OCO3)on1)N1CCCc2c(F)cccc21
Reply | > 45 µM

* * *

# assay-target: human SCD1 (Homo sapiens (Human))
# Sequence (O00767 whole entry): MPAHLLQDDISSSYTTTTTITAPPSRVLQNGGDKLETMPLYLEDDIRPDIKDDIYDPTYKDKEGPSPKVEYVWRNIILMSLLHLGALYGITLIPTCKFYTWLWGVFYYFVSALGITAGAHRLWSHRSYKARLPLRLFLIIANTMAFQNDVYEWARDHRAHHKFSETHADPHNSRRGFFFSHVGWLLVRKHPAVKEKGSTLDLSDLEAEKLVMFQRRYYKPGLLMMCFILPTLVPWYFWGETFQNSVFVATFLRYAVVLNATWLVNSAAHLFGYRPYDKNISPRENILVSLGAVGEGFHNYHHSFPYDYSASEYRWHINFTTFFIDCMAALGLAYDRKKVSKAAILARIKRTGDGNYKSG
# assay-remarks: Yeast growth assay, strain expressing human SCD1 as the sole desaturase (reduced growth as surrogate for SCD inhibition)
# details: yeast with OLE1 deleted expressing human SCD1 from a plasmid; growth read as OD600 after 40 h at 30° C.; top drug concentration 33.3 μM
property-measured: IC50 (µM)
Output spec: scalar in µM, unitless text.

Worked cases, answers included:
Ask | Request the reported IC50 associated with O=C(c1cc(-c2ccccc2)on1)N1CC(Oc2ccccc2)C1
Reply | 0.49

Ask | Request the reported IC50 associated with O=C(c1cc(-c2ccccc2)on1)N1CCN(c2cc(F)ccc2Cl)CC1
Reply | 19

New cases:
Ask | Request the reported IC50 associated with O=C(c1cc(-c2ccncn2)on1)N1CC(Cc2ccccc2)C1
Reply | 2.5

* * *

# assay-target: human SCD1 (Homo sapiens (Human))
# assay-remarks: Yeast growth assay, strain expressing human SCD1 as the sole desaturase (reduced growth as surrogate for SCD inhibition)
# details: yeast with OLE1 deleted expressing human SCD1 from a plasmid; growth read as OD600 after 40 h at 30° C.; top drug concentration 33.3 μM
property-measured: IC50

Worked cases, answers included:
Ask | Request the reported IC50 associated with Cc1cnc(-c2cc(C(=O)Nc3cnn(Cc4ccccc4)c3)no2)s1 [Compound 142]
Reply | > 45 µM

Ask | Request the reported IC50 associated with COc1cc(F)ccc1C1CCCN1C(=O)c1cc(-c2ccc3c(c2)OCO3)on1 (centres unmarked) [Compound 430]
Reply | > 45 µM

Ask | Request the reported IC50 associated with C=Cc1cc(C(=O)Nc2cnn(Cc3cccc(F)c3)c2)no1 [Compound 106]
Reply | 0.048 µM

Ask | Request the reported IC50 associated with O=C(c1cc(-c2ccc3c(c2)OCO3)on1)N1CC2(C1)CN(c1ccccc1)C2 [Compound 222]
Reply | > 45 µM

Ask | Request the reported IC50 associated with O=C(c1cc(-c2ccc3c(c2)OCO3)on1)N1CCN(c2cccc(F)c2)CC1 [Compound 282]
Reply | > 45 µM

Ask | Request the reported IC50 associated with COc1ccc(C2CCCN2C(=O)c2cc(-c3ccc4c(C)nn(C)c4c3)on2)cc1 (centres unmarked) [Compound 394]
Reply | > 45 µM

Ask | Request the reported IC50 associated with O=C(c1cc(-c2ccncc2)on1)N1CC(c2ccccc2)C1 [Compound 229, trifluoroacetic acid]
Reply | 0.66 µM

Attention now shifts to the item below.
Ask | Request the reported IC50 associated with N#Cc1ccc(F)cc1Cn1cc(NC(=O)c2cc(-c3ccccc3)on2)cn1 [Compound 88]
Reply | > 45 µM
